SUBJECT_OF_TEST: Adrenergic receptor alpha-2 (Rattus norvegicus) (UniProt P22086+P19328+P22909)
PARAMETER_MEASURED: ID50 (mg/kg)

# COMPOUND_STRUCTURE_STRING, ID50 / mg/kg
measured = [
    ("O=S(=O)(c1ccccc1)N1CCC[C@@H]2CN3CCc4ccccc4[C@@H]3C[C@@H]21", 0.053),
]

[1] CCS(=O)(=O)N1CCC[C@@H]2CN3CCc4ccccc4[C@@H]3C[C@@H]21
[2] COc1ccc2c(c1)CCN1C[C@H]3CCCN(S(C)(=O)=O)[C@H]3C[C@@H]21
[3] O=S(=O)(CCO)N1CCC[C@@H]2CN3CCc4ccccc4[C@@H]3C[C@@H]21
Arrange the 3 molecules by rising ID50, starting with the smallest. Rank the items, then write their labels in that order. 2, 1, 3

====

SUBJECT_OF_TEST: Adrenergic receptor alpha-2 (Rattus norvegicus, UniProt P22086+P19328+P22909)
ASSAY_SUMMARY: Binding affinity to alpha-2 adrenergic receptor determined by measurement of [3H]yohimbine displacement from rat cortical membrane
PARAMETER_MEASURED: Log Ki

Please review the entries below; each comes with its answer.
# MOLECULE, Log Ki
records = [
    ("COc1cc2c(cc1OC)[C@@H]1C[C@H]3[C@H](CCCN3S(C)(=O)=O)CN1C(C)C2 (stereo partly drawn)", -7.08),
    ("CS(=O)(=O)N1CCC[C@@H]2CN3CCc4cc5c(cc4[C@@H]3C[C@H]21)OCO5", -9.19),
    ("COc1ccc2c(c1)CCN1C[C@H]3CCCN(S(=O)(=O)N(C)C)[C@@H]3C[C@@H]21", -8.97),
]

[1] COc1ccc2c(c1)CCN1C[C@@H]3CCCN(S(C)(=O)=O)[C@@H]3C[C@H]21
[2] Cc1ccc2c(c1)CCN1C[C@H]3CCCN(S(C)(=O)=O)[C@H]3C[C@@H]21
Just curious, which one has the larger Log Ki reading, 1 or 2 ? Record your answer as the label of the chosen record. 1
(1: -6.32, 2: -9.15)

====

SUBJECT_OF_TEST: Adrenergic receptor alpha-1 (Rattus norvegicus, UniProt P15823+P23944+P43140)
ASSAY_SUMMARY: Binding affinity to alpha-1 adrenergic receptor determined by measurement of [3H]prazosin displacement from rat cortical membrane
PARAMETER_MEASURED: Log Ki

# COMPOUND_STRUCTURE_STRING, Log Ki
measured = [
    ("COc1cccc2c1[C@@H]1C[C@H]3[C@H](CCCN3S(C)(=O)=O)CN1CC2", -5.48),
    ("CS(=O)(=O)N1CCC[C@H]2[C@H]3c4cc5c(cc4CCN3CC[C@@H]21)OCO5", -5.06),
    ("CS(=O)(=O)N1CCC[C@@H]2CN3CCc4cc(O)ccc4[C@@H]3C[C@@H]21", -5.27),
    ("Cc1ccc2c(c1)CCN1C[C@H]3CCCN(S(C)(=O)=O)[C@H]3C[C@@H]21", -4.89),
    ("COc1ccc2c(c1OC)CCN1C[C@H]3CCCN(S(C)(=O)=O)[C@H]3C[C@@H]21", -4.42),
    ("O=S(=O)(c1ccc(F)cc1)N1CCC[C@@H]2CN3CCc4ccccc4[C@@H]3C[C@@H]21", -5.38),
    ("COc1ccc2c(c1)CCN1C[C@H]3CCCN(S(=O)(=O)Cc4ccccc4)[C@@H]3C[C@@H]21", -5.13),
]

====

SUBJECT_OF_TEST: Adrenergic receptor alpha-2 (Rattus norvegicus, UniProt P22086+P19328+P22909)
ASSAY_SUMMARY: Binding affinity to alpha-2 adrenergic receptor determined by measurement of [3H]yohimbine displacement from rat cortical membrane
PARAMETER_MEASURED: Log Ki

Please review the entries below; each comes with its answer.
# COMPOUND_STRUCTURE_STRING, Log Ki
data = [
    ("COc1cccc2c1[C@@H]1C[C@H]3[C@H](CCCN3S(C)(=O)=O)CN1CC2", -8.65),
    ("COc1ccc2c(c1)CCN1C[C@H]3CCCN(S(=O)(=O)N(C)C)[C@H]3C[C@@H]21", -8.66),
    ("COc1ccc2c(c1)CCN1C[C@@H]3CCCN(S(C)(=O)=O)[C@H]3C[C@@H]21", -7.84),
    ("COCCS(=O)(=O)N1CCC[C@@H]2CN3CCc4ccccc4[C@@H]3C[C@@H]21", -8.63),
    ("COc1ccc2c(c1)CCN1C[C@H]3CCCN(S(N)(=O)=O)[C@H]3C[C@@H]21", -8.43),
]

[A] COc1ccc2c(c1)CCN1C[C@H]3CCCN(S(C)(=O)=O)[C@H]3C[C@@H]21
[B] CCCCS(=O)(=O)N1CCC[C@H]2CN3CCc4ccccc4[C@@H]3C[C@H]21
Just curious, which one has the larger Log Ki reading, A or B ? Record your answer as the label of the chosen record. B

====

SUBJECT_OF_TEST: Adrenergic receptor alpha-2 (Rattus norvegicus, UniProt P22086+P19328+P22909)
ASSAY_SUMMARY: Binding affinity to alpha-2 adrenergic receptor determined by measurement of [3H]yohimbine displacement from rat cortical membrane
PARAMETER_MEASURED: Log Ki

# COMPOUND_STRUCTURE_STRING, Log Ki
records = [
    ("COCCS(=O)(=O)N1CCC[C@@H]2CN3CCc4cc(OC)ccc4[C@@H]3C[C@@H]21", -9.22),
    ("CCCS(=O)(=O)N1CCC[C@@H]2CN3CCc4ccccc4[C@@H]3C[C@@H]21", -8.73),
    ("CS(=O)(=O)N1CCC[C@H]2CN3CCc4cc5c(cc4[C@@H]3C[C@H]21)OCO5", -7.24),
    ("COc1ccc2c(c1OC)CCN1C[C@H]3CCCN(S(C)(=O)=O)[C@H]3C[C@@H]21", -7.94),
    ("COc1cc2c(cc1OC)[C@@H]1C[C@H]3[C@H](CCCN3S(=O)(=O)CC(C)C)CN1CC2", -8.1),
    ("COc1ccc2c(c1Br)CCN1C[C@H]3CCCN(S(C)(=O)=O)[C@@H]3C[C@@H]21", -8.3),
    ("CS(=O)(=O)N1CCC[C@@H]2CN3CCc4ccc(F)cc4[C@@H]3C[C@@H]21", -8.04),
    ("CC(C)CS(=O)(=O)N1CCC[C@@H]2CN3CCc4cc5c(cc4[C@@H]3C[C@@H]21)OCO5", -8.17),
    ("CS(=O)(=O)N1CCC[C@@H]2CN3CCc4cc5c(cc4[C@@H]3C[C@@H]21)OCCO5", -8.8),
    ("Nc1ccc(S(=O)(=O)N2CCC[C@@H]3CN4CCc5ccccc5[C@@H]4C[C@@H]32)cc1", -8.66),
    ("CN1C[C@@H]2CCCN(S(C)(=O)=O)[C@@H]2C[C@H]1c1ccc2c(c1)OCO2", -6.13),
    ("CCCCS(=O)(=O)N1CCC[C@H]2CN3CCc4ccccc4[C@@H]3C[C@@H]21", -7.42),
    ("CS(=O)(=O)N1CCC[C@H]2CN3CCc4c([nH]c5ccccc45)[C@@H]3C[C@H]21", -6.26),
    ("CS(=O)(=O)N1CCC[C@H]2CN3CCc4cc5c(cc4[C@@H]3C[C@@H]21)OCO5", -7.56),
    ("CC(C)CS(=O)(=O)N1CCC[C@@H]2CN3CCc4ccccc4[C@@H]3C[C@@H]21", -8.77),
    ("O=S(=O)(CCO)N1CCC[C@@H]2CN3CCc4ccccc4[C@@H]3C[C@@H]21", -8.16),
    ("COc1ccc(OC)c2c1CCN1C[C@H]3CCCN(S(C)(=O)=O)[C@H]3C[C@@H]21", -7.37),
]

====

SUBJECT_OF_TEST: Adrenergic receptor alpha-1 (Rattus norvegicus, UniProt P15823+P23944+P43140)
ASSAY_SUMMARY: Binding affinity to alpha-1 adrenergic receptor determined by measurement of [3H]prazosin displacement from rat cortical membrane
PARAMETER_MEASURED: Log Ki

# COMPOUND_STRUCTURE_STRING, PARAMETER_MEASURED, RECORDED_NUMBER
data = [
    ("CS(=O)(=O)N1CCC[C@H]2CN3CCc4ccccc4[C@@H]3C[C@H]21", "Log Ki", -5.58),
    ("CN1C[C@H]2CCCN(S(C)(=O)=O)[C@H]2C[C@H]1c1ccc2c(c1)OCO2", "Log Ki", -4.82),
    ("COc1ccc2c(c1)CCN1C[C@H]3CCCN(S(C)(=O)=O)[C@H]3C[C@@H]21", "Log Ki", -4.99),
    ("CS(=O)(=O)N1CCC[C@@H]2CN3CCc4cc5c(cc4[C@@H]3C[C@H]21)OCO5", "Log Ki", -5.32),
    ("CC(C)CS(=O)(=O)N(C)[C@@H]1CCN2CCc3ccccc3[C@@H]2C1", "Log Ki", -5.7),
    ("O=S(=O)(c1ccc(Cl)cc1)N1CCC[C@@H]2CN3CCc4ccccc4[C@@H]3C[C@@H]21", "Log Ki", -5.19),
    ("CCS(=O)(=O)N1CCC[C@@H]2CN3CCc4ccccc4[C@@H]3C[C@@H]21", "Log Ki", -4.97),
    ("CS(=O)(=O)N1CCC[C@H]2CN3CCc4c([nH]c5ccccc45)[C@@H]3C[C@H]21", "Log Ki", -5.15),
    ("COc1ccc2c(c1)CCN1C[C@@H]3CCCN(S(C)(=O)=O)[C@@H]3C[C@@H]21", "Log Ki", -4.85),
    ("CS(=O)(=O)N1CCC[C@@H]2CN3CCc4ccc(F)cc4[C@@H]3C[C@@H]21", "Log Ki", -5.21),
    ("COCCS(=O)(=O)N1CCC[C@@H]2CN3CCc4cc(OC)ccc4[C@@H]3C[C@@H]21", "Log Ki", -5.03),
    ("COc1ccc2c(c1)CCN1C[C@H]3CCCN(S(=O)(=O)c4cccs4)[C@@H]3C[C@@H]21", "Log Ki", -5.01),
    ("CS(=O)(=O)N1CCC[C@@H]2CN3CCc4ccccc4[C@@H]3C[C@@H]21", "Log Ki", -5.26),
    ("COc1ccc2c(c1Br)CCN1C[C@H]3CCCN(S(C)(=O)=O)[C@@H]3C[C@@H]21", "Log Ki", -5.35),
    ("COc1cc2c(cc1OC)[C@@H]1C[C@H]3[C@H](CCCN3S(=O)(=O)CC(C)C)CN1CC2", "Log Ki", -4.46),
    ("C=CS(=O)(=O)N1CCC[C@@H]2CN3CCc4cc(OC)ccc4[C@@H]3C[C@@H]21", "Log Ki", -5.33),
    ("CN(C)S(=O)(=O)N1CCC[C@@H]2CN3CCc4ccccc4[C@@H]3C[C@@H]21", "Log Ki", -6.03),
    ("CS(=O)(=O)N1CCC[C@@H]2CN(CCc3ccccc3)CC[C@@H]21", "Log Ki", -5.51),
    ("COc1ccc2c(c1)CCN1C[C@H]3CCCN(S(=O)(=O)N(C)C)[C@@H]3C[C@@H]21", "Log Ki", -5.57),
    ("CCCS(=O)(=O)N1CCC[C@@H]2CN3CCc4ccccc4[C@@H]3C[C@@H]21", "Log Ki", -5.29),
    ("O=S(=O)(c1ccccc1)N1CCC[C@@H]2CN3CCc4ccccc4[C@@H]3C[C@@H]21", "Log Ki", -5.31),
    ("COCCS(=O)(=O)N1CCC[C@@H]2CN3CCc4ccccc4[C@@H]3C[C@@H]21", "Log Ki", -5.13),
    ("CS(=O)(=O)N1CCC[C@H]2CN3CCc4cc5c(cc4[C@@H]3C[C@H]21)OCO5", "Log Ki", -5.95),
    ("CCCCS(=O)(=O)N1CCC[C@@H]2CN3CCc4ccccc4[C@@H]3C[C@@H]21", "Log Ki", -5.64),
    ("CCCCS(=O)(=O)N1CCC[C@H]2CN3CCc4ccccc4[C@@H]3C[C@H]21", "Log Ki", -5.76),
    ("COc1cc2c(cc1OC)[C@@H]1C[C@H]3[C@H](CCCN3S(C)(=O)=O)CN1CC2", "Log Ki", -4.46),
    ("CN1C[C@@H]2CCCN(S(C)(=O)=O)[C@@H]2C[C@H]1c1ccc2c(c1)OCO2", "Log Ki", -5.55),
    ("CS(=O)(=O)N1CCC[C@@H]2CN3CCc4cc5c(cc4[C@@H]3C[C@@H]21)OCO5", "Log Ki", -5.14),
    ("CS(=O)(=O)N1CCC[C@H]2CN3CCc4cc5c(cc4[C@@H]3C[C@@H]21)OCO5", "Log Ki", -5.65),
    ("COc1ccc2c(c1)CCN1C[C@H]3CCCN(S(N)(=O)=O)[C@H]3C[C@@H]21", "Log Ki", -4.92),
    ("COc1ccc(S(=O)(=O)N2CCC[C@@H]3CN4CCc5ccccc5[C@@H]4C[C@@H]32)cc1", "Log Ki", -5.31),
    ("CCCCS(=O)(=O)N1CCC[C@H]2CN3CCc4ccccc4[C@@H]3C[C@@H]21", "Log Ki", -5.3),
    ("COc1ccc2c(c1)CCN1C[C@H]3CCCN(S(=O)(=O)NC(C)(C)C)[C@H]3C[C@@H]21", "Log Ki", -5.26),
]

The origin of these recorded values is ChEMBL document CHEMBL1125249.
